Test system: RPMI-8226 leukemia
measurement.description: NCI-60 one-dose screen, 48 h
measurement.setup: 10 µM unless noted
This is part of a sample that, as a whole, favours compounds with a hit. Of some 83,000 tested, about 20% had one in any assay. The source made the active and inactive calls. The calls were made as follows: active = growth percent below 10; inactive = the rest.
Select the correct class. Options are yes (1) (active), no (0) (inactive) and nothing else.

Example results:
COc1c(F)ccc(C(=O)Nc2ccc3nc(NC(=O)C4CCCN(S(=O)(=O)c5ccc(C(F)(F)F)cc5)C4)sc3c2)c1F (stereo not given)    no (0)
Cc1cc(C)cc(C(=O)Nc2cccc(-c3cn(-c4ccc(S(N)(=O)=O)cc4)nn3)c2)c1    no (0)

What is the recorded call for this compound in the test? CC1(c2cc3cc(Br)ccc3oc2=O)NC(=O)c2c(/C=C/C(=O)OC3CC4CCC3(C)C4(C)C)cccc2N1 (stereo not given)
no (0)

What is the recorded call for this compound in the test? Cc1ccc([C@H]2C(C(=O)c3ccc(Cl)cc3)C3(N[C@@H]2c2ccccc2)C(=O)Nc2ccc(Cl)cc23)cc1 (stereo not given in full)
no (0)

What is the recorded call for this compound in the test? O=C(N/N=C/c1ccc(-c2ccc(O)cc2)s1)c1[nH]c2ccc(Br)cc2c1-c1ccccc1
yes (1)

Entry source: PubChem BioAssay (NCI)
